Record form. Attribute: IC50. Fill in for each entry.
Molecular target: Human TRPC6 (Homo sapiens, UniProt Q9Y210)
Construct: expressed in transfected cells
Sequence (Q9Y210 1-931): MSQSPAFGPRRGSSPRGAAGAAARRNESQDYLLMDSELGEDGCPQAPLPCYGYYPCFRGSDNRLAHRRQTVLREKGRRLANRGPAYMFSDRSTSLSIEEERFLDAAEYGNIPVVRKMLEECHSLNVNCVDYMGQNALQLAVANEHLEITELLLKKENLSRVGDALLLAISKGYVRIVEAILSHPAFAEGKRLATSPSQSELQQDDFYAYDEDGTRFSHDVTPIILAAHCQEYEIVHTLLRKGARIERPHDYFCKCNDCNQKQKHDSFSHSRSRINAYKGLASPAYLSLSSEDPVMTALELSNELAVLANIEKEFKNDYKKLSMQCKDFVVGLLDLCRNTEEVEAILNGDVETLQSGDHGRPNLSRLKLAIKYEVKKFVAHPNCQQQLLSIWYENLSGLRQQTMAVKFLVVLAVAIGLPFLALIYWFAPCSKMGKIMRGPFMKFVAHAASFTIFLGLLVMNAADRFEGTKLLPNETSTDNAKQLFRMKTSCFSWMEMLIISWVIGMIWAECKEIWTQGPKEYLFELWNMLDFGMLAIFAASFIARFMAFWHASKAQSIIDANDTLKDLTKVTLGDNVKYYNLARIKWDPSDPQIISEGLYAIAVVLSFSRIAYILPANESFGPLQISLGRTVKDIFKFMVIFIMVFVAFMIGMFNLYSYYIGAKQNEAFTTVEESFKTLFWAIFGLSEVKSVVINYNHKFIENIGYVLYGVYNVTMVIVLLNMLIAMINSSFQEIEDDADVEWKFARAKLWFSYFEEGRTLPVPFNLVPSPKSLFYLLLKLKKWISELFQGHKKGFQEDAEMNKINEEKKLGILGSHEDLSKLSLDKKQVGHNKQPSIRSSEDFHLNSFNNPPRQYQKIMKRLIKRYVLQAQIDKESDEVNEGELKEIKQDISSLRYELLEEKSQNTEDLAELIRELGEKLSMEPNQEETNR
Experiment: Evaluation of TRPC6 channel inhibitory activity (1), FLIPR Calcium 5 Assay Kit, OAG stimulation (Compound Nos. 1-1293)
Assay type: cell-based
Details: Human TRPC6 stably-expressing cells, OAG 30 μM, FLIPR Calcium 5 Assay Kit; read-out: Inhibitory activity (pIC50 class) (converted)

Example compounds with recorded IC50:
smilesStructure | propertyLabel | result
CN(C)c1cc(Oc2cc(F)ccc2-c2ncc(CCN)cn2)n(C)n1 | IC50 | 0.01 to 1 µM
CN(C(=O)C1CCNCC1)c1ccc(-c2ccc(C#N)cc2Oc2cc(C3CC3)nn2C)nc1 | IC50 | > 1 µM

Field: IC50. Fill in for each record below.
1. N#Cc1ccc(-c2ncc(CN)cn2)c(Oc2cnnc(N3CCCC3)c2)c1
2. Cc1cc(Oc2cc(C#N)ccc2-c2ncc([C@H](O)CN)cn2)cc(N2C[C@@H]3C[C@H]2CO3)n1
3. Cc1cc(Oc2cc(C#N)ccc2-n2cc(CCN)cn2)n(C)n1
4. N#Cc1ccc(-c2ccc(CCN)cn2)c(Oc2cc(Cl)cnn2)c1
5. Cc1nc(Oc2cc(C#N)ccc2-c2ccc(CCN)cc2)cc(-c2nccs2)n1
6. Cn1nc(C2CC2)cc1Oc1cc(C#N)ccc1-c1ccc2ccnc(N)c2c1
7. N#Cc1ccc(-c2ccc(CCN)cn2)c(Cn2cnc(-c3ccccc3)c2)c1

1: < 0.01 µM; 2: 0.01 to 1 µM; 3: > 1 µM; 4: > 1 µM; 5: > 1 µM; 6: > 1 µM; 7: < 0.01 µM

Give IC50 for all compounds that follow.
1. Cn1nc(-c2ccncn2)cc1Oc1cc(C#N)ccc1-c1ncc(CCN)cn1
2. Cn1nc(N2CCCC2=O)cc1Oc1cc(C#N)ccc1-c1ccc(CCN)cn1
3. Cn1nc(C2CC2)cc1Oc1cc(C#N)ccc1-c1ncc(N)cn1
4. N#Cc1ccc(-c2ncc(CCN)cn2)c(C(=O)c2nnc(N3CCOCC3)o2)c1
5. Cc1ccc(-c2cc(Oc3cc(C#N)ccc3-c3ccc(CCN)nc3)nc(C)n2)nc1
6. CC(C)CN(C)c1cc(Oc2cc(C#N)ccc2-c2ncc(CCN)cn2)n(C)n1
7. N#Cc1ccc(-c2ncc(CCN)cn2)c(Oc2cnnc(N3CCCCC3)c2)c1

1. < 0.01 µM
2. 0.01 to 1 µM
3. > 1 µM
4. 0.01 to 1 µM
5. > 1 µM
6. < 0.01 µM
7. < 0.01 µM

Provide reported IC50 for each item, in the same order as listed.
1. Cc1cc(Oc2cc(C#N)ccc2-c2ncc(CCN)cn2)n(C)n1
2. Cc1nc(OCC2CCCCC2)cc(Oc2cc(C#N)ccc2-c2ccc(CCN)cc2)n1
3. COCCOc1cc(Oc2cc(C#N)ccc2-c2ccc(CCN)cc2)nc(C)n1
4. N#Cc1ccc(-c2ccc(CCN)cn2)c(Sc2cnnc(N3CCCCC3)c2)c1
5. Cn1nc(C2CCCC2)cc1Oc1cc(C#N)ccc1-c1ncc(CCN)cn1
6. Cc1cc(Oc2cc(C#N)ccc2-c2ncc(CCN)cn2)no1
7. Cc1nn(CC(C)C)c(C)c1Oc1cc(C#N)ccc1-c1ncc(CCN)cn1
8. Cc1nc(Nc2cc(C#N)ccc2-c2ccc(CCN)cc2)cc(N2CCOCC2)n1

1: 0.01 to 1 µM; 2: > 1 µM; 3: 0.01 to 1 µM; 4: < 0.01 µM; 5: < 0.01 µM; 6: > 1 µM; 7: 0.01 to 1 µM; 8: < 0.01 µM

Provide IC50 values for the following items, in order.
1. Cn1nc(C2CC2)cc1Oc1cc(C#N)ccc1-c1cc(CN)ccn1
2. Cn1nc(C(=O)O)cc1Oc1cc(C#N)ccc1-c1ccc(CCN)cn1
3. Cn1nc(N)cc1Oc1cc(C#N)ccc1-c1ccc([C@H](O)CN)cn1
4. Cc1cc(C(=O)c2cc(C#N)ccc2-c2ncc(CN)cn2)cc(N2CCOCC2)n1
5. Cn1nc(C2CC2)cc1Oc1cc(C#N)ccc1-c1ncc(CC(C)(C)N)cn1
6. Cc1nc(Oc2cc(C#N)ccc2-c2ccc(CCN)cc2)cc(N2CCCC2)n1

1. 0.01 to 1 µM
2. > 1 µM
3. > 1 µM
4. < 0.01 µM
5. < 0.01 µM
6. < 0.01 µM

For each of the items listed, what is its IC50?
1. N#Cc1ccc(-c2ccc(CCN)cn2)c(C(=O)c2nnc(N3CCOCC3)s2)c1
2. Cc1cc(Oc2cc(C#N)ccc2-c2ccc(CCCN)cc2)cc(N2CCOCC2)n1
3. COCCN(C)c1cc(Oc2cc(C#N)ccc2-c2ncc(CCN)cn2)nc(C)n1
4. Cn1nc(C2CC2)cc1Oc1cc(C#N)ccc1-c1ccc(N2CC[C@@H](F)[C@H](N)C2)cn1

1: 0.01 to 1 µM; 2: 0.01 to 1 µM; 3: 0.01 to 1 µM; 4: > 1 µM

====

Biological target: Human TRPC6 (Homo sapiens)
Construct: expressed in transfected cells
Sequence (Q9Y210 1-931): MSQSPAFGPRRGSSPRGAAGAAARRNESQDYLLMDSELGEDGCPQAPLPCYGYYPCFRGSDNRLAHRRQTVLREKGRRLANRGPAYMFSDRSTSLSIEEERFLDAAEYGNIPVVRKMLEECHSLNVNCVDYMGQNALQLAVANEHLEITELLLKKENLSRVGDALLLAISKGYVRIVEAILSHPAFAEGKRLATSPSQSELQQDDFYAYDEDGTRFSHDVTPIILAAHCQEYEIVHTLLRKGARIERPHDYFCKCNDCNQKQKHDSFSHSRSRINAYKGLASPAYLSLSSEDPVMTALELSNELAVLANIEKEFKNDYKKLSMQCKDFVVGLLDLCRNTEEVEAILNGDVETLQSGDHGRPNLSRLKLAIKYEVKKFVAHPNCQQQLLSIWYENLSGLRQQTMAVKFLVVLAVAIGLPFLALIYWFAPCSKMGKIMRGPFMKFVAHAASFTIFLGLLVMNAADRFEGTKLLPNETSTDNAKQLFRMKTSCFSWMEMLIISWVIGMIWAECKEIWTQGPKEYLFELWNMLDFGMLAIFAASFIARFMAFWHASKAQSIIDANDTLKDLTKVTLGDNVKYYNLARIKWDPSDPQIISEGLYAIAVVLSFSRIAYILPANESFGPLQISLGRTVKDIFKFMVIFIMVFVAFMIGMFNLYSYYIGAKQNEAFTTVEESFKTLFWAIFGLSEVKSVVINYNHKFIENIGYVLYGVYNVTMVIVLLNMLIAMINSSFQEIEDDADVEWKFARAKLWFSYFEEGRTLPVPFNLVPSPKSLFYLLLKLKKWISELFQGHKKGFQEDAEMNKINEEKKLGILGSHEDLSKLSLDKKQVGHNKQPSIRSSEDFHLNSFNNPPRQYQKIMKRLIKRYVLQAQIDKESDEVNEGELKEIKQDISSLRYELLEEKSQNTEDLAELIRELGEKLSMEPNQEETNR
Assay: Evaluation of TRPC6 channel inhibitory activity (1), FLIPR Calcium 5 Assay Kit, OAG stimulation (Compound Nos. 1-1293)
Format: cell-based
Settings: Human TRPC6 stably-expressing cells, OAG 30 μM, FLIPR Calcium 5 Assay Kit; read-out: Inhibitory activity (pIC50 class) (converted)
propertyLabel: IC50

Below: 4 molecules and their reported IC50.
smilesStructure | propertyLabel | result
Cc1nc(NCC(C)C)cc(Oc2cc(C#N)ccc2-c2ncc(CN)cn2)n1 | IC50 | < 10 nM
Cc1nc(Oc2cc(C#N)ccc2-c2ccc(CCN)cc2)cc(N2CC(F)(F)C2)n1 | IC50 | 10 to 1000 nM
Cn1nc(C2CC2)cc1Oc1cc(C#N)ccc1-c1ccc(CN)nn1 | IC50 | 10 to 1000 nM
CCc1cc(Oc2cc(C#N)ccc2-c2ccc(CN)nc2)n(C)n1 | IC50 | > 1000 nM

Requested read-out IC50, target or system Human TRPC6 (Homo sapiens), entry `Cc1c(Oc2cc(C#N)ccc2-c2ncc(CCN)cn2)cnn1CC(F)(F)F`
10 to 1000 nM
